- experimental_target: UniProt:P56817
- assay_info: Inhibition of human recombinant BACE1 after 60 mins by FRET assay
The threshold is 10 µM. Values of IC50 beneath it are tagged 1; values meeting or exceeding it are tagged -1.

1) Oc1cc(O)cc(Oc2c(O)cc(O)c3c2Oc2c(O)cc4oc5c(Oc6cc(O)cc(O)c6)c(O)cc(O)c5c4c2O3)c1 ... 1
2) Oc1cc(O)cc(Oc2c(O)cc(O)c3c2Oc2c(O)cc(Oc4c(O)cc(Oc5c(O)cc(O)c6c5Oc5c(O)cc(O)cc5O6)cc4O)cc2O3)c1 ... 1
3) Oc1cc(O)cc(Oc2c(O)cc(O)c3c2Oc2c(O)cc(Oc4c(O)cc(O)cc4O)cc2O3)c1 ... 1
4) Oc1cc(O)cc(O)c1 ... -1
5) Oc1cc(O)cc(Oc2c(O)cc(O)c3c2Oc2c(O)cc(O)cc2O3)c1 ... -1
6) Oc1cc(O)c2oc3cc(O)c4oc5cc(O)cc(O)c5oc4c3oc2c1 [DIOXINODEHYDROECKOL] ... 1
7) Oc1cc(O)cc(Oc2c(O)cc(O)cc2Oc2c(O)cc(O)cc2O)c1 ... -1

----------
- experimental_target: Beta-secretase 1 (Homo sapiens, UniProt P56817)
- Sequence (P56817 whole entry): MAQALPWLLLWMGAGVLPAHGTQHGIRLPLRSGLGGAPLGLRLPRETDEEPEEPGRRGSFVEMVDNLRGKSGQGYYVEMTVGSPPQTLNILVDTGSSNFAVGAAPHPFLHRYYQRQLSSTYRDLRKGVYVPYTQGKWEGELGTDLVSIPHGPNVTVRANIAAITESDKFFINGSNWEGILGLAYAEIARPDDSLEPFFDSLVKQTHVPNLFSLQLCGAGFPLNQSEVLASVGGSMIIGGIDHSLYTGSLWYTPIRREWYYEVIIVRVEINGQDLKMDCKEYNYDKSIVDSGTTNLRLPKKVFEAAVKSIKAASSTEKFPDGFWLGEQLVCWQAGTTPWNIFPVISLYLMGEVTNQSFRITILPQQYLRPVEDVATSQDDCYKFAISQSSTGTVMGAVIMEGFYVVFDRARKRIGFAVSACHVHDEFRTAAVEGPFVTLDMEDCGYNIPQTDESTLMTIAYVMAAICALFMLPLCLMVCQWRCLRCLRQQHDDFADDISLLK
- assay_info: Noncompetitive inhibition of human recombinant BACE1 after 60 mins by Dixon plot analysis
Ki reference
result_type: Ki (µM)

1. Oc1cc(O)cc(Oc2c(O)cc(O)c3c2Oc2c(O)cc(O)cc2O3)c1 ... 13.9
2. Oc1cc(O)cc(Oc2c(O)cc(O)c3c2Oc2c(O)cc(Oc4c(O)cc(O)cc4O)cc2O3)c1 ... 7.2
3. Oc1cc(O)cc(Oc2c(O)cc(O)c3c2Oc2c(O)cc(Oc4c(O)cc(Oc5c(O)cc(O)c6c5Oc5c(O)cc(O)cc5O6)cc4O)cc2O3)c1 ... 1.5
4. Oc1cc(O)c2oc3cc(O)c4oc5cc(O)cc(O)c5oc4c3oc2c1 [DIOXINODEHYDROECKOL] ... 8
5. Oc1cc(O)cc(Oc2c(O)cc(O)c3c2Oc2c(O)cc4oc5c(Oc6cc(O)cc(O)c6)c(O)cc(O)c5c4c2O3)c1 ... 1.3
6. Oc1cc(O)cc(Oc2c(O)cc(O)cc2Oc2c(O)cc(O)cc2O)c1 ... 12.1
